Target: T1, human PCSK9 (proprotein convertase subtilisin kexin type 9) (human, UniProt Q8NBP7 31-692)
T1 construct: immobilized directly (ProteOn), biotinylated (Octet) or in solution, according to the assay; also called hPCSK9; PCSK9-AF647 (labelled form)
T1 sequence (Q8NBP7 31-692 limits assumed): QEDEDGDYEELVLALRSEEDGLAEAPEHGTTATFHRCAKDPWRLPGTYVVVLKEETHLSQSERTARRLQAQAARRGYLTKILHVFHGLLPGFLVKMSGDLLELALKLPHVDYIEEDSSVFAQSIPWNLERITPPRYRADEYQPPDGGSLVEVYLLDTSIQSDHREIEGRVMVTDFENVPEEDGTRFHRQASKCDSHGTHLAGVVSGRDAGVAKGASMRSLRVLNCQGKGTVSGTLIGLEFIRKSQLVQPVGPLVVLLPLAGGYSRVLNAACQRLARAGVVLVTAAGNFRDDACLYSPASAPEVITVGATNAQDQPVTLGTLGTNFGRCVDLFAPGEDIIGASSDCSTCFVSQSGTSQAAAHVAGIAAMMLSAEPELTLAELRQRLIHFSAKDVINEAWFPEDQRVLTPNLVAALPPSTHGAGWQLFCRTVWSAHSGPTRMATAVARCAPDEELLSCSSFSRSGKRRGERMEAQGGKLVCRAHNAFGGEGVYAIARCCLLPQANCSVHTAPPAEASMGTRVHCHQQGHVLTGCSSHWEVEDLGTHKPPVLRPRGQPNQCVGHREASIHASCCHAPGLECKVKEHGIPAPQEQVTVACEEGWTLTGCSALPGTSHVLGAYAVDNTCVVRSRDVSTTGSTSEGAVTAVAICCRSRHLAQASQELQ
Assay: BLI (Octet Red), 37 C
Parameter Measured: Kd (nM)

Solved entries:
{"columns": ["Binder", "Unit Tag", "Kd"],
 "data": [
  ["2382H10 (designed binder) MGVSDVPRDLEVVAATPTSLLISWDAPAGGYGYYRITYGETGGNSPVQEFTVPVSKGTATISGLKPGVDYTITVYAVEFDFPGSGYYHRPISINYRTEIDKPSQHHHHHH", "nM", 1.4],
  ["2381G09 (designed binder) MGVSDVPRDLEVVAATPTSLLISWDAPAGDGYGYYRITYGETGGNSPVQEFTVPVSKGTATISGLKPGVDYTITVYAVEFTFPGAGYYHRPISINYRTEIDKPSQHHHHHH", "nM", 1.12]
]}

I = 2381B04 (designed binder) MGVSDVPRDLEVVAATPTSLLISWEPFSRLPGGGEYYRITYGETGGNSPLQQFTVPGSKGTATISGLKPGVDYTITVYAVEYPYEHSGYYHRPISINYRTEIDKPSQHHHHHH
II = 2382D05 (designed binder) MGVSDVPRDLEVVAATPTSLLISWDAPADGGYGYYRITYGETGGNSPVQEFTVPVSKGTATISGLKPGVDYTITVYAVEFDFPGAGYYHRPISINYRTEIDKPSQHHHHHH
# min-compare on Kd between I and II Use the label to indicate which entry you chose. II
